experimentalSystem: ZIKV E protein (GZ01) (Zika virus (strain GZ01))
testName: ELISA
measurementName: EC50 (ng/mL)
Report as a plain number; the unit ng/mL is understood.

2H-15 (antibody, V domains shown) VH: EVQLVQSGAEVKKPGASVKVSCKASGYTFTSYDVNWVRQATGQGLEWMGWMNPNSGNTGYAQKFQGRVTMTRNTSISTAYMELSSLRSEDTAVYYCARVSSGSYYGSYYYYYYGMDVWGQGTTVTVSS VL: SYELTQPPSASGTPGQRVTISCSGSSSNIGNNYVHWYQQLPGSAPKLLIYRNNQRPSGVPDRFSGSKSGTSGSLAISGLRSEDEADYYCASWDDSLSGHWVFGGGTKVTVL
7.5

# ---- query binder ----
-- ask I would be grateful if you could share the reported EC50 for 2H-9 (antibody, V domains shown) VH: EVQLVQSGGKVVELGASVKVSCKASGYTFTTYDINWVRQATGQGLEWMGWMNPNSGNTGYAQKFQGRVTMTRNTSISTAYMELSSLRSEDTAVYYCARVSSGSYYGSYYYYYYGMDVWGQGTTVTVSS VL: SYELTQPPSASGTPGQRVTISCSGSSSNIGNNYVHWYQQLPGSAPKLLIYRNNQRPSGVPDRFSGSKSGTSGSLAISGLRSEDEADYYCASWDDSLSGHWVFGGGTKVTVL .
-- reply 4.2

All figures here come from paper PMC6821881.
